binders and their reported EC50
tested-on: T1, GII.4 Sydney 2012 virus-like particles (VLPs), based on strain AFV08795.1 (human norovirus GII.4 Sydney 2012, UniProt P54635 1-538)
T1 construct: also called GII.4 VLPs
T1 chain: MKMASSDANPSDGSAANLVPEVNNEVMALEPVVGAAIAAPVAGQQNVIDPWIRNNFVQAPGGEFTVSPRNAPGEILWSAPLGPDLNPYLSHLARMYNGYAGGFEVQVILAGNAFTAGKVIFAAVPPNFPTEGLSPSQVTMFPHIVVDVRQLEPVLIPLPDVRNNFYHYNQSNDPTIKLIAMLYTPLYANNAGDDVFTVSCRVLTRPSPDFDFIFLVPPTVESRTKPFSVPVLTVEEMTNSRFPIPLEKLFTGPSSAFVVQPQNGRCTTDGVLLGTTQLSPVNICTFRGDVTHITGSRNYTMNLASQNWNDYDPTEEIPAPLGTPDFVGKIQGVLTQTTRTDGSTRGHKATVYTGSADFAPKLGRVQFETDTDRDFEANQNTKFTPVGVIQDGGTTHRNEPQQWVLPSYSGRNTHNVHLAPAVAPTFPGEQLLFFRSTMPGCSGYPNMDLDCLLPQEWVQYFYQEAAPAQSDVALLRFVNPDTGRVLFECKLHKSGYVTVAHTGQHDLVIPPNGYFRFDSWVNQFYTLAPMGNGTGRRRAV
assay-comment: indirect ELISA on coated GII.4 Sydney 2012 VLPs
Give me the value, and tack the unit on after it.

binder: NORO-315B (antibody, V domains shown) VH: QVQLVESGGGLVKPGGSLRLSCVASGFTFSDYYMTWFRQTPGRGLEWLSYISAIGGYTEYADSVKSRFIISRDNGKKSLYLQMNSLRAEDSGVYYCAREDCHGTSCYSGDWGQGTLVTVSS VL: QSVLTQPPSVSGAPGQRVTISCTGSSSNIGAGYDVHWYQQLPGTAPKLLIYHNTNRPSGVPDRFSGSKSGTSAYLTITGLQAEDEADYYCQSYDRSLSKSRVFSGGTKLTVL
EC50: 0.7 µg/mL
--
binder: NORO-256A (antibody, V domains shown) VH: QVQLVESGGGVVQAGRSLRLSCAASGFTFRSYGMHWVRQAPGKGLEWVAIISYDGGSKYYADSVKGRFTISRDNSKNTLYLQMNSLRVEDTALYYCAKDFLRVYSYGWHSFDIWGLGTLVTVSS VL: QSVLTQPPSVSAAPGQRVTISCSGSSSNIGTYYVSWYQHLPGTAPKLLIYDNDKRPSGIPDRFSASKSGTSATLDIAGLQTGDEADYYCGTWDLSLTAGWVFGGGTKLTVL
EC50: 0.9 µg/mL

Read the next record carefully.
IN: Please list EC50 recorded for the binder NORO-123 (antibody, V domains shown) VH: QVQLVESGGGVVQPGRSLRLSCSTSGFTFSQYPMHWVRQAPGKGLEWVALISYDGMNKYYADSVRGRFTISRDNSENTQYLQMNSLRGDDTAVYYCARVTGDCTGNRCSYWAYYYYGLDVWGQGTLVTVSS VL: QSALTQPPSASGSPGQSVTISCTGTSSDVGGYKYVSWYQQHPGKAPKLMIYEVTRRPSGVPDRFSGSKSGNTAFLTVSGLQAEDEADYYCGSYAGSTTSGYVFGTGTKVIVL
OUT: 5.4 µg/mL
